Reported viability, T/C by item:
- System: 743489-274-T-PDC complex spheroid viability;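 note: spheroids exposed to compounds for 7 days before readout; 100% = DMSO vehicle control wells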
- assay summary: Anticancer human tumor 743489-274-T-PDC patient-derived renal cell carcinoma cell line growth inhibition
- experimental setup: second compound 0.316 µM; first compound 0.949 µM; stronger effect = lower value

compound | unit descriptor | viability, T/C
Nc1ccccc1NC(=O)c1ccc(CNC(=O)OCc2cccnc2)cc1 + NC1CC1c1ccc(-c2cccc(O)c2)cc1 | % | 45.5
CCN(c1cc(-c2ccc(CN3CCOCC3)cc2)cc(C(=O)NCc2c(C)cc(C)[nH]c2=O)c1C)C1CCOCC1 + NC1CCC(NC2CC2c2ccccc2)CC1 | % | 104
CCN(c1cc(-c2ccc(CN3CCOCC3)cc2)cc(C(=O)NCc2c(C)cc(C)[nH]c2=O)c1C)C1CCOCC1 + NC1CC1c1ccc(-c2cccc(O)c2)cc1 | % | 97.2
O=C(C=Cc1cccc(S(=O)(=O)Nc2ccccc2)c1)NO + NC1CC1c1ccc(-c2cccc(O)c2)cc1 | % | 53.1
NS(=O)(=O)OCC1CC(n2ccc3c(NC4CCc5ccccc54)ncnc32)CC1O (configuration not stated) + NC1CC1c1ccc(-c2cccc(O)c2)cc1 | % | 134
Nc1ccccc1NC(=O)c1ccc(CNC(=O)OCc2cccnc2)cc1 + NC1CCC(NC2CC2c2ccccc2)CC1 | % | 61.6
O=C(C=Cc1cccc(S(=O)(=O)Nc2ccccc2)c1)NO + NC1CCC(NC2CC2c2ccccc2)CC1 | % | 69.3

These measurements were taken from PubChem BioAssay AID1918942.
